// data source = patent US6943164B2

Assay: pKa of levosimendan
Format: physicochemical
Description: At room temperature the solubility of levosimendan in phosphate buffer is 0.4 mg/ml (pH 7.4), 0.03 mg/ml (pH 6) and 0.02 mg/ml (pH 2). Thus, the water solubility of levosimendan decreases quite sharply when pH is lowered below neutral. […] Such solutions are chemically and physically stable over an extended period of time and, therefore, they are particularly suitable for pharmaceutical use.
Measurement Kind: pKa

Q. Please look up its pKa: CC1CC(=O)NN=C1c1ccc(NN=C(C#N)C#N)cc1 (single isomer, unassigned; (-)) [levosimendan]
A. 6.26

---

experiment: Solubility of levosimendan in phosphate buffer at room temperature; assay type: physicochemical; settings: aqueous buffer, pH 6
Measurement Kind: solubility (µg/mL)
State the answer as a number, implicitly in µg/mL.

Q. Given the compound CC1CC(=O)NN=C1c1ccc(NN=C(C#N)C#N)cc1 (single isomer, unassigned; (-)) [levosimendan] , what is its reported solubility?
A. 30

---

assay: Solubility of levosimendan in phosphate buffer at room temperature; format: physicochemical; conditions: aqueous buffer, pH 7.4
Measurement Kind: solubility (µg/mL)
Report only the number, with the unit µg/mL understood.

Q. Field request: solubility | item: CC1CC(=O)NN=C1c1ccc(NN=C(C#N)C#N)cc1 (single isomer, unassigned; (-))
A. 400
